Test Name: refractive index (Na D-line) (dimensionless)
Stated Conditions: 303.15 K; 101.33 kPa; Liquid; Standard Abbe refractometry
Numbers after ± are expanded uncertainties.
Property: refractive index; scope: individual compounds
Attribute Measured: refractive index

[[record]]
compound = "CCn1cc[n+](C)c1.N#C[C-](C#N)C#N [1-ethyl-3-methyl-1H-imidazolium tricyanomethanide]"
result = "1.5101 ± 0.0007"

[[record]]
compound = "CCCCCCCCn1cc[n+](C)c1.N#CC(=C=[N-])C#N [1-methyl-3-octylimidazolium tricyanomethanide]"
result = "1.4993 ± 0.0007"

[[record]]
compound = "CCCCCCCCCC[n+]1ccn(C)c1.N#C[C-](C#N)C#N [3-decyl-1-methylimidazolium tricyanomethanide]"
result = "1.495 ± 0.0007"

[[record]]
compound = "CCCCn1cc[n+](C)c1.N#C[B-](C#N)(C#N)C#N [1-butyl-3-methyl-1H-imidazolium tetracyanoborate]"
result = "1.45 ± 0.0006"

[[record]]
compound = "CCCCCCCCCCn1cc[n+](C)c1.N#C[B-](C#N)(C#N)C#N [1-decyl-3-methyl-1H-imidazolium tetracyanoborate]"
result = "1.4552 ± 0.0006"

[[record]]
compound = "CCCCCCCCn1cc[n+](C)c1.N#C[B-](C#N)(C#N)C#N [1-methyl-3-octylimidazolium tetracyanoborate]"
result = "1.4541 ± 0.0006"

[[record]]
compound = "CCCCCC[n+]1ccn(C)c1.N#C[C-](C#N)C#N [3-hexyl-1-methylimidazolium tricyanomethanide]"
result = "1.5026 ± 0.0007"


* * *

Property: mass density; scope: individual molecules
Stated Conditions: 323.15 K; 101.33 kPa; Liquid; Vibrating tube method
Attribute Measured: mass density (kg/m3)

[[record]]
molecule = "CCn1cc[n+](C)c1.N#C[C-](C#N)C#N [1-ethyl-3-methyl-1H-imidazolium tricyanomethanide]"
output_unit = "kg/m3"
numeric_value = 1063.74

[[record]]
molecule = "CCCCCCCCn1cc[n+](C)c1.N#CC(=C=[N-])C#N [1-methyl-3-octylimidazolium tricyanomethanide]"
output_unit = "kg/m3"
numeric_value = 984.65

[[record]]
molecule = "CCCCCCCCCC[n+]1ccn(C)c1.N#C[C-](C#N)C#N [3-decyl-1-methylimidazolium tricyanomethanide]"
output_unit = "kg/m3"
numeric_value = 967.53

[[record]]
molecule = "CCCCCCCCCCn1cc[n+](C)c1.N#C[B-](C#N)(C#N)C#N [1-decyl-3-methyl-1H-imidazolium tetracyanoborate]"
output_unit = "kg/m3"
numeric_value = 945.54


* * *

Property: thermal conductivity; scope: individual molecules
Stated Conditions: 313.15 K; 101.33 kPa; Liquid; Parallel plate method
± gives the expanded uncertainty stated by the source.
Attribute Measured: thermal conductivity

[[record]]
molecule = "CCCCCCCCn1cc[n+](C)c1.N#CC(=C=[N-])C#N [1-methyl-3-octylimidazolium tricyanomethanide]"
attribute_measured = "thermal conductivity"
result = "0.1685 ± 0.0057 W/m/K"

[[record]]
molecule = "CCCCCCn1cc[n+](C)c1.N#C[B-](C#N)(C#N)C#N [1-hexyl-3-methylimidazolium tetracyanoborate]"
attribute_measured = "thermal conductivity"
result = "0.1714 ± 0.0057 W/m/K"

[[record]]
molecule = "CCCCCC[n+]1ccn(C)c1.N#C[C-](C#N)C#N [3-hexyl-1-methylimidazolium tricyanomethanide]"
attribute_measured = "thermal conductivity"
result = "0.1817 ± 0.0061 W/m/K"

[[record]]
molecule = "CCCCCCCCCC[n+]1ccn(C)c1.N#C[C-](C#N)C#N [3-decyl-1-methylimidazolium tricyanomethanide]"
attribute_measured = "thermal conductivity"
result = "0.1676 ± 0.0057 W/m/K"


* * *

Stated Conditions: 318.15 K; 101.33 kPa; Liquid; Vibrating tube method
Property: mass density; scope: individual compounds
Attribute Measured: mass density (kg/m3)

[[record]]
compound = "CCCCCCCCCC[n+]1ccn(C)c1.N#C[C-](C#N)C#N [3-decyl-1-methylimidazolium tricyanomethanide]"
numeric_value = 970.63

[[record]]
compound = "CCCCCC[n+]1ccn(C)c1.N#C[C-](C#N)C#N [3-hexyl-1-methylimidazolium tricyanomethanide]"
numeric_value = 1007.58

[[record]]
compound = "CCn1cc[n+](C)c1.N#C[C-](C#N)C#N [1-ethyl-3-methyl-1H-imidazolium tricyanomethanide]"
numeric_value = 1067.21

[[record]]
compound = "CCCCCCCCCCn1cc[n+](C)c1.N#C[B-](C#N)(C#N)C#N [1-decyl-3-methyl-1H-imidazolium tetracyanoborate]"
numeric_value = 948.91

[[record]]
compound = "CCCCCCCCn1cc[n+](C)c1.N#C[B-](C#N)(C#N)C#N [1-methyl-3-octylimidazolium tetracyanoborate]"
numeric_value = 961.2

[[record]]
compound = "CCCCn1cc[n+](C)c1.N#C[B-](C#N)(C#N)C#N [1-butyl-3-methyl-1H-imidazolium tetracyanoborate]"
numeric_value = 995

[[record]]
compound = "CCCCCCCCn1cc[n+](C)c1.N#CC(=C=[N-])C#N [1-methyl-3-octylimidazolium tricyanomethanide]"
numeric_value = 987.8


* * *

Stated Conditions: 313.15 K; 101.33 kPa; Liquid; Parallel plate method
Attribute Measured: thermal conductivity (W/m/K)

[[record]]
compound = "CCCCCCCCn1cc[n+](C)c1.N#C[B-](C#N)(C#N)C#N [1-methyl-3-octylimidazolium tetracyanoborate]"
attribute_measured = "thermal conductivity"
numeric_value = 0.1644

[[record]]
compound = "CCCCn1cc[n+](C)c1.N#C[B-](C#N)(C#N)C#N [1-butyl-3-methyl-1H-imidazolium tetracyanoborate]"
attribute_measured = "thermal conductivity"
numeric_value = 0.1737

[[record]]
compound = "CCCCCCCCCCn1cc[n+](C)c1.N#C[B-](C#N)(C#N)C#N [1-decyl-3-methyl-1H-imidazolium tetracyanoborate]"
attribute_measured = "thermal conductivity"
numeric_value = 0.1646

[[record]]
compound = "CCn1cc[n+](C)c1.N#C[C-](C#N)C#N [1-ethyl-3-methyl-1H-imidazolium tricyanomethanide]"
attribute_measured = "thermal conductivity"
numeric_value = 0.1928


* * *

Stated Conditions: 303.15 K; 101.33 kPa; Liquid; Vibrating tube method
Attribute Measured: mass density (kg/m3)

[[record]]
compound = "CCCCCCCCCCn1cc[n+](C)c1.N#C[B-](C#N)(C#N)C#N [1-decyl-3-methyl-1H-imidazolium tetracyanoborate]"
numeric_value = 959.09

[[record]]
compound = "CCCCn1cc[n+](C)c1.N#C[B-](C#N)(C#N)C#N [1-butyl-3-methyl-1H-imidazolium tetracyanoborate]"
numeric_value = 1006.09

[[record]]
compound = "CCn1cc[n+](C)c1.N#C[C-](C#N)C#N [1-ethyl-3-methyl-1H-imidazolium tricyanomethanide]"
numeric_value = 1077.71


* * *

Stated Conditions: 313.15 K; 101.33 kPa; Liquid; Vibrating tube method
Attribute Measured: mass density (kg/m3)

[[record]]
compound = "CCCCn1cc[n+](C)c1.N#C[B-](C#N)(C#N)C#N [1-butyl-3-methyl-1H-imidazolium tetracyanoborate]"
output_unit = "kg/m3"
numeric_value = 998.67

[[record]]
compound = "CCCCCCCCCC[n+]1ccn(C)c1.N#C[C-](C#N)C#N [3-decyl-1-methylimidazolium tricyanomethanide]"
output_unit = "kg/m3"
numeric_value = 973.73

[[record]]
compound = "CCn1cc[n+](C)c1.N#C[C-](C#N)C#N [1-ethyl-3-methyl-1H-imidazolium tricyanomethanide]"
output_unit = "kg/m3"
numeric_value = 1070.69

[[record]]
compound = "CCCCCCCCCCn1cc[n+](C)c1.N#C[B-](C#N)(C#N)C#N [1-decyl-3-methyl-1H-imidazolium tetracyanoborate]"
output_unit = "kg/m3"
numeric_value = 952.29

[[record]]
compound = "CCCCCCCCn1cc[n+](C)c1.N#C[B-](C#N)(C#N)C#N [1-methyl-3-octylimidazolium tetracyanoborate]"
output_unit = "kg/m3"
numeric_value = 964.65

[[record]]
compound = "CCCCCC[n+]1ccn(C)c1.N#C[C-](C#N)C#N [3-hexyl-1-methylimidazolium tricyanomethanide]"
output_unit = "kg/m3"
numeric_value = 1010.83

[[record]]
compound = "CCCCCCCCn1cc[n+](C)c1.N#CC(=C=[N-])C#N [1-methyl-3-octylimidazolium tricyanomethanide]"
output_unit = "kg/m3"
numeric_value = 990.97


* * *

Stated Conditions: 288.15 K; 101.33 kPa; Liquid; Vibrating tube method
Attribute Measured: mass density (kg/m3)

[[record]]
compound = "CCCCCCCCCC[n+]1ccn(C)c1.N#C[C-](C#N)C#N [3-decyl-1-methylimidazolium tricyanomethanide]"
attribute_measured = "mass density"
output_unit = "kg/m3"
numeric_value = 989.38

[[record]]
compound = "CCn1cc[n+](C)c1.N#C[C-](C#N)C#N [1-ethyl-3-methyl-1H-imidazolium tricyanomethanide]"
attribute_measured = "mass density"
output_unit = "kg/m3"
numeric_value = 1088.37

[[record]]
compound = "CCCCCCCCCCn1cc[n+](C)c1.N#C[B-](C#N)(C#N)C#N [1-decyl-3-methyl-1H-imidazolium tetracyanoborate]"
attribute_measured = "mass density"
output_unit = "kg/m3"
numeric_value = 969.36

[[record]]
compound = "CCCCn1cc[n+](C)c1.N#C[B-](C#N)(C#N)C#N [1-butyl-3-methyl-1H-imidazolium tetracyanoborate]"
attribute_measured = "mass density"
output_unit = "kg/m3"
numeric_value = 1017.37

